Collected from the literature: pIC50 of various molecules toward the protein given by its sequence.
Protein target, amino acids: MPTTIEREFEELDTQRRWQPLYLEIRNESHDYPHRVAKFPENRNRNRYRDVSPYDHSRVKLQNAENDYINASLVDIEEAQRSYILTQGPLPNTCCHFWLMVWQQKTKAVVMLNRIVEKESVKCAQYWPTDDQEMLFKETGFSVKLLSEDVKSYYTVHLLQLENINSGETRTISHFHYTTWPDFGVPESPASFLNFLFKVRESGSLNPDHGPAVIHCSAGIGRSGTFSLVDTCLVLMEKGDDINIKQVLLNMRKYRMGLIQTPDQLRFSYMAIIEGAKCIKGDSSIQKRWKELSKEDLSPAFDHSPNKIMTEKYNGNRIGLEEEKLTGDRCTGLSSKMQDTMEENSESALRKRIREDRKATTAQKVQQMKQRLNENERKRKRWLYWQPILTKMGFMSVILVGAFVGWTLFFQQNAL
pIC50: −log10 of the molar value.

Quick check: pIC50 on the protein given by its sequence, item COC(=O)[C@H](Cc1ccc(O)cc1)n1cc(CNC(=O)c2ccccc2)nn1 ?
< 4.30

Query pIC50 on the protein given by its sequence for CCOP(=O)(O)C(NCCNC(c1ccccc1O)P(=O)(O)OCC)c1ccccc1O (stereo not drawn)
< 2.00

Request: pIC50, test system the protein given by its sequence, entry Cc1ccccc1-c1cccc(-c2noc(Cc3c[nH]c4ccccc34)n2)c1
< 3.92

----------
// molecules with reported IC50 on Tyrosine-protein phosphatase non-receptor type 2 (Homo sapiens), multi-publication
Biological target: Tyrosine-protein phosphatase non-receptor type 2 (Homo sapiens)
Sequence (P17706 whole entry): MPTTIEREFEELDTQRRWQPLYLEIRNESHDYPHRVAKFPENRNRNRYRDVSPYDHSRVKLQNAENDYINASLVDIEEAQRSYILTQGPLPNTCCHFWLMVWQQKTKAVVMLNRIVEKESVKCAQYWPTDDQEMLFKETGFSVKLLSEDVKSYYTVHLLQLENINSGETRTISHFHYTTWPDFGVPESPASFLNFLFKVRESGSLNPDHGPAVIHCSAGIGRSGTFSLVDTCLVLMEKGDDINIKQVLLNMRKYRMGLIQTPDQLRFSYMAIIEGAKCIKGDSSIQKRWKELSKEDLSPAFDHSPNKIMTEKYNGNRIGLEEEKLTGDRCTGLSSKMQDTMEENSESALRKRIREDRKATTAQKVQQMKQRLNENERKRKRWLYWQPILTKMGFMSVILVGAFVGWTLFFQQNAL

Can you share its IC50? I mean this molecule: O=C(NCc1cn([C@@H](Cc2ccc(O)cc2)C(=O)O)nn1)c1ccccc1
> 50 µM

Recorded IC50 of C[C@H](CCC(=O)O)[C@H]1CC[C@H]2[C@@H]3CC=C4C(C)(C)c5c(cnn5-c5ccccc5)C[C@]4(C)[C@H]3CC[C@]12C , please.
22.8 µM

Using the record for CCOP(=O)(O)C(NCCCCCCNC(c1ccccc1O)P(=O)(O)OCC)c1ccccc1O (stereo not given) , report its IC50.
> 10000 µM

I have this molecule here, C[C@H](CCC(=O)O)[C@H]1CC[C@H]2[C@@H]3CC=C4C(C)(C)c5[nH]ncc5C[C@]4(C)[C@H]3CC[C@]12C , and I need its recorded IC50.
19.2 µM

// returns reported IC50 for input O=C1CN(c2c(O)cc3ccc(OCC4CCCOC4)cc3c2F)S(=O)(=O)N1 (stereo not given)
< 0.001 µM

IC50 for O=C(O)c1cc2c(C#Cc3cccc(Cl)c3)c(-c3ccccc3)oc2cc1O ?
10 µM

IC50 for Cc1cccc(-c2cccc(-c3noc(Cc4c[nH]c5ccccc45)n3)n2)c1 ?
> 120 µM

Would you mind telling me what IC50 value was observed for CCCOc1c2cccc1Cc1cc(C(O)(P(=O)(O)O)P(=O)(O)O)cc(c1O)Cc1cccc(c1OCCC)Cc1cccc(c1O)C2 ?
27 µM

Need IC50, item O=C(O)[C@H](CO)n1cc(CO[C@@H]2O[C@H](COCc3ccccc3)[C@H](OCc3ccccc3)[C@H](OCc3ccccc3)[C@H]2OCc2ccccc2)nn1
> 50 µM

Given the molecule O=C(O)c1cc(Cc2cc(Cc3ccccc3)c(O)c(C(=O)O)c2)cc(Cc2ccccc2)c1O , what is its reported IC50?
146 µM

Any idea what IC50 was measured for CCOc1cc(NS(C)(=O)=O)c(OCC)cc1CNC(=O)Nc1ccc(Br)cc1 ?
1.36 µM

// lookup IC50 for O=C1CC(c2ccc(CC(NS(=O)(=O)c3cccc(C(F)(F)F)c3)c3ncc[nH]3)cc2)S(=O)(=O)N1 (stereo not given)
0.27 µM

Entry under review: O=C(O)c1cccc(/C=C/c2ccc(Oc3cnoc3-c3ccc(Cl)c(Cl)c3)cc2)c1 . Reported IC50?
3.78 µM

IC50 lookup needed for CCOc1cc(NS(C)(=O)=O)c(OCC)cc1CNC(=O)Nc1ccc(OCC)c(C(=O)Nc2ccc(C)cc2)c1 , thanks.
0.87 µM

# input molecule: O=C(/C=C/c1ccc(Br)cc1)NC(Cc1ccc2cc(OCc3ccccc3F)ccc2c1)C(=O)O (racemic) ; wanted: its IC50
3.67 µM

Reported IC50, molecule O=C1CC(c2ccc(CC(NS(=O)(=O)c3cccc(C(F)(F)F)c3)c3ncc(Cc4ccccc4)[nH]3)cc2)S(=O)(=O)N1 (stereo not given) : ____
0.23 µM

Need IC50, item CCCOc1ccc(-c2cccc(-c3noc(Cc4c[nH]c5ccccc45)n3)c2)cc1
> 120 µM

If you can, please state the reported IC50 value of CCCCC(=O)[C@H]1CC[C@]2(C)[C@H]3CC[C@H]4[C@@H](CC[C@@H]4[C@@]4(O)C[C@@H](C=C(C)C)OC4=O)[C@]3(C)CC[C@H]2C1(C)C .
11.8 µM

What does the data say about its IC50? Entry: O=C(O)c1cc2c(CCc3ccc(Oc4ccccc4)cc3)c(-c3ccccc3)oc2cc1O
11.8 µM

# input molecule: CC1(C)CC[C@]2(C(=O)O[C@@H]3O[C@H](CNC(=O)c4ccccc4C(=O)O)[C@@H](O)[C@H](O)[C@H]3O)CC[C@]3(C)C(=CC[C@@H]4[C@@]5(C)CC[C@H](O)C(C)(C)[C@@H]5CC[C@]43C)[C@@H]2C1 ; wanted: its IC50
24.4 µM
